B1: PLK2 (parent)
chain: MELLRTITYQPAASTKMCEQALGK

Variants of: B1
Test: protein stability index of a GFP-peptide fusion (GPS, HEK-293T) (PSI 1-6); higher = more stable;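 further: lentivirally expressed fusions sorted by FACS into six bins by GFP to DsRed ratio, PSI derived from sequencing read proportions per bin multiplied by bin number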
Conditions: c terminus: a fixed tail appended
Listing of recorded protein stability index by entry.
quantity_name: protein stability index

| mutant_designation | recorded_number |
| --- | --- |
| L22Q | 2.02 |
| T8D | 2.01 |
| C18N | 1.95 |
| I7T | 1.97 |
| L22R | 1.89 |
| A21Q | 2.98 |
| A13N | 2.54 |
| A21R | 2.69 |
| M17L | 2.84 |
| Y9W | 1.45 |
| A21N | 2.22 |
| Q20R | 2.71 |
| M17K | 2.98 |
| A13H | 2.36 |
| G23V | 1.97 |
| Q10V | 4.15 |
| A13G | 2.97 |
| Y9K | 1.64 |
| I7K | 3.24 |
| G23H | 2.88 |
| Q20G | 2.7 |
| Y9F | 2.05 |
| R5M | 2.36 |
| Y9P | 2.04 |
| M1S | 2.17 |
| L22E | 2.21 |
| E19Y | 2.82 |
| K24Q | 1.89 |
| K24G | 1.65 |
| A13V | 1.96 |
| T15Y | 2.83 |
| G23W | 3.02 |
